assay: In vivo tumor targeting and biodistribution in nude mice bearing MDA-MB-231 xenografts
Design: species or system mouse
cond: mouse, heart, total radioactivity; nude mice with MDA-MB-231 xenografts, 2 h p.i., mean ± SD, n = 4-6; read-out: Heart uptake
Where a SMILES comes first, the peptide text is derived from it. [ ]: non-standard residue; d: D form. The star is where a group is joined. DOTA = O=C(O)CN1CCN(CC(=O)O)CCN(CC(=O)*)CCN(CC(=O)O)CC1; βAla = NCCC(=O)O
recorded.metric: tissue uptake at 2 h
Output should be the measured figure followed by the unit it is expressed in.

What does the data say about its tissue uptake at 2 h? Entry: CC[C@H](C)[C@H](NC(=O)[C@H](Cc1ccc(O)cc1)NC(=O)[C@@H](NC(=O)[C@H](CCCNC(=N)N)NC(=O)[C@H](CC(=O)O)NC(=O)CCNC(=O)[C@H](CCCCN)NC(=O)CN1CCN(CC(=O)O)CCN(CC(=O)O)CCN(CC(=O)O)CC1)C(C)C)C(=O)N[C@@H](Cc1c[nH]cn1)C(=O)N1CCC[C@H]1C(=O)N[C@@H](Cc1ccccc1)C(=O)N[C@@H](Cc1c[nH]c2ccccc12)C(=O)N[C@@H](CCCCN)C(=O)N[C@@H](Cc1ccc(O)cc1)C(N)=O [^68Ga-DOTA-AngII peptide, metal not drawn] ({DOTA}-K[βAla]DRVYIHPFWKY-NH2) 0.65 %ID/g

* * *

assay: In vivo tumor targeting and biodistribution in nude mice bearing MDA-MB-231 xenografts
Design: species or system mouse
cond: mouse, intestines without contents, total radioactivity; nude mice with MDA-MB-231 xenografts, 2 h p.i., mean ± SD, n = 4-6; read-out: Intestines uptake (portion without contents)
Where a SMILES comes first, the peptide text is derived from it. [ ]: non-standard residue; d: D form. The star is where a group is joined. DOTA = O=C(O)CN1CCN(CC(=O)O)CCN(CC(=O)*)CCN(CC(=O)O)CC1; βAla = NCCC(=O)O
recorded.metric: tissue uptake at 2 h (%ID/g)
Provide the reading as a plain figure in %ID/g.

What does the data say about its tissue uptake at 2 h? Entry: CC[C@H](C)[C@H](NC(=O)[C@H](Cc1ccc(O)cc1)NC(=O)[C@@H](NC(=O)[C@H](CCCNC(=N)N)NC(=O)[C@H](CC(=O)O)NC(=O)CCNC(=O)[C@H](CCCCN)NC(=O)CN1CCN(CC(=O)O)CCN(CC(=O)O)CCN(CC(=O)O)CC1)C(C)C)C(=O)N[C@@H](Cc1c[nH]cn1)C(=O)N1CCC[C@H]1C(=O)N[C@@H](Cc1ccccc1)C(=O)N[C@@H](Cc1c[nH]c2ccccc12)C(=O)N[C@@H](CCCCN)C(=O)N[C@@H](Cc1ccc(O)cc1)C(N)=O [^68Ga-DOTA-AngII peptide, metal not drawn] ({DOTA}-K[βAla]DRVYIHPFWKY-NH2) 1.05

* * *

assay: In vivo biodistribution in normal Balb/c mice
Parameters: species or system mouse
cond: female, mouse, intestines without contents, iv, total radioactivity; normal Balb/c mice, 45 min p.i., i.v. tail vein, mean ± SD, n = 4-6; read-out: Intestines uptake (portion without contents)
Where a SMILES comes first, the peptide text is derived from it. [ ]: non-standard residue; d: D form. The star is where a group is joined. DOTA = O=C(O)CN1CCN(CC(=O)O)CCN(CC(=O)*)CCN(CC(=O)O)CC1; βAla = NCCC(=O)O
recorded.metric: tissue uptake at 0.75 h (%ID/g)
Provide the reading as a plain figure in %ID/g.

What does the data say about its tissue uptake at 0.75 h? Entry: CC[C@H](C)[C@H](NC(=O)[C@H](Cc1ccc(O)cc1)NC(=O)[C@@H](NC(=O)[C@H](CCCNC(=N)N)NC(=O)[C@H](CC(=O)O)NC(=O)CCNC(=O)[C@H](CCCCN)NC(=O)CN1CCN(CC(=O)O)CCN(CC(=O)O)CCN(CC(=O)O)CC1)C(C)C)C(=O)N[C@@H](Cc1c[nH]cn1)C(=O)N1CCC[C@H]1C(=O)N[C@@H](Cc1ccccc1)C(=O)N[C@@H](Cc1c[nH]c2ccccc12)C(=O)N[C@@H](CCCCN)C(=O)N[C@@H](Cc1ccc(O)cc1)C(N)=O [^68Ga-DOTA-AngII peptide, metal not drawn] ({DOTA}-K[βAla]DRVYIHPFWKY-NH2) 1.45

* * *

assay: In vivo biodistribution in normal Balb/c mice
Parameters: species or system mouse
cond: female, mouse, spleen, iv, total radioactivity; normal Balb/c mice, 2 h p.i., i.v. tail vein, mean ± SD, n = 4-6; read-out: Spleen uptake
Where a SMILES comes first, the peptide text is derived from it. [ ]: non-standard residue; d: D form. The star is where a group is joined. DOTA = O=C(O)CN1CCN(CC(=O)O)CCN(CC(=O)*)CCN(CC(=O)O)CC1; βAla = NCCC(=O)O
recorded.metric: tissue uptake at 2 h (%ID/g)
Provide the reading as a plain figure in %ID/g.

What does the data say about its tissue uptake at 2 h? Entry: CC[C@H](C)[C@H](NC(=O)[C@H](Cc1ccc(O)cc1)NC(=O)[C@@H](NC(=O)[C@H](CCCNC(=N)N)NC(=O)[C@H](CC(=O)O)NC(=O)CCNC(=O)[C@H](CCCCN)NC(=O)CN1CCN(CC(=O)O)CCN(CC(=O)O)CCN(CC(=O)O)CC1)C(C)C)C(=O)N[C@@H](Cc1c[nH]cn1)C(=O)N1CCC[C@H]1C(=O)N[C@@H](Cc1ccccc1)C(=O)N[C@@H](Cc1c[nH]c2ccccc12)C(=O)N[C@@H](CCCCN)C(=O)N[C@@H](Cc1ccc(O)cc1)C(N)=O [^68Ga-DOTA-AngII peptide, metal not drawn] ({DOTA}-K[βAla]DRVYIHPFWKY-NH2) 0.31

* * *

assay: In vivo tumor targeting and biodistribution in nude mice bearing MDA-MB-231 xenografts
Parameters: species or system mouse
cond: mouse, stomach, total radioactivity; nude mice with MDA-MB-231 xenografts, 2 h p.i., mean ± SD, n = 4-6; read-out: Stomach uptake
Where a SMILES comes first, the peptide text is derived from it. [ ]: non-standard residue; d: D form. The star is where a group is joined. DOTA = O=C(O)CN1CCN(CC(=O)O)CCN(CC(=O)*)CCN(CC(=O)O)CC1; βAla = NCCC(=O)O
recorded.metric: tissue uptake at 2 h

What does the data say about its tissue uptake at 2 h? Entry: CC[C@H](C)[C@H](NC(=O)[C@H](Cc1ccc(O)cc1)NC(=O)[C@@H](NC(=O)[C@H](CCCNC(=N)N)NC(=O)[C@H](CC(=O)O)NC(=O)CCNC(=O)[C@H](CCCCN)NC(=O)CN1CCN(CC(=O)O)CCN(CC(=O)O)CCN(CC(=O)O)CC1)C(C)C)C(=O)N[C@@H](Cc1c[nH]cn1)C(=O)N1CCC[C@H]1C(=O)N[C@@H](Cc1ccccc1)C(=O)N[C@@H](Cc1c[nH]c2ccccc12)C(=O)N[C@@H](CCCCN)C(=O)N[C@@H](Cc1ccc(O)cc1)C(N)=O [^68Ga-DOTA-AngII peptide, metal not drawn] ({DOTA}-K[βAla]DRVYIHPFWKY-NH2) 0.3 %ID/g

* * *

assay: In vivo tumor targeting and biodistribution in nude mice bearing MDA-MB-231 xenografts
Design: species or system mouse
cond: mouse, pancreas, total radioactivity; nude mice with MDA-MB-231 xenografts, 2 h p.i., mean ± SD, n = 4-6; read-out: Pancreas uptake
Where a SMILES comes first, the peptide text is derived from it. [ ]: non-standard residue; d: D form. The star is where a group is joined. DOTA = O=C(O)CN1CCN(CC(=O)O)CCN(CC(=O)*)CCN(CC(=O)O)CC1; βAla = NCCC(=O)O
recorded.metric: tissue uptake at 2 h (%ID/g)
Provide the reading as a plain figure in %ID/g.

What does the data say about its tissue uptake at 2 h? Entry: CC[C@H](C)[C@H](NC(=O)[C@H](Cc1ccc(O)cc1)NC(=O)[C@@H](NC(=O)[C@H](CCCNC(=N)N)NC(=O)[C@H](CC(=O)O)NC(=O)CCNC(=O)[C@H](CCCCN)NC(=O)CN1CCN(CC(=O)O)CCN(CC(=O)O)CCN(CC(=O)O)CC1)C(C)C)C(=O)N[C@@H](Cc1c[nH]cn1)C(=O)N1CCC[C@H]1C(=O)N[C@@H](Cc1ccccc1)C(=O)N[C@@H](Cc1c[nH]c2ccccc12)C(=O)N[C@@H](CCCCN)C(=O)N[C@@H](Cc1ccc(O)cc1)C(N)=O [^68Ga-DOTA-AngII peptide, metal not drawn] ({DOTA}-K[βAla]DRVYIHPFWKY-NH2) 0.29

* * *

Tested on: AT1 receptor
assay: In vivo receptor-blocking study in nude mice bearing MDA-MB-231 xenografts
cond: mouse, muscle/bone, total radioactivity; nude mice with MDA-MB-231 xenografts, 2 h p.i., co-injected ~100 µg unlabeled AngII peptide analog, mean ± SD; read-out: Muscle/bone uptake, blocked
Where a SMILES comes first, the peptide text is derived from it. [ ]: non-standard residue; d: D form. The star is where a group is joined. DOTA = O=C(O)CN1CCN(CC(=O)O)CCN(CC(=O)*)CCN(CC(=O)O)CC1; βAla = NCCC(=O)O
recorded.metric: tissue uptake at 2 h (%ID/g)
Provide the reading as a plain figure in %ID/g.

Identify the measured tissue uptake at 2 h of CC[C@H](C)[C@H](NC(=O)[C@H](Cc1ccc(O)cc1)NC(=O)[C@@H](NC(=O)[C@H](CCCNC(=N)N)NC(=O)[C@H](CC(=O)O)NC(=O)CCNC(=O)[C@H](CCCCN)NC(=O)CN1CCN(CC(=O)O)CCN(CC(=O)O)CCN(CC(=O)O)CC1)C(C)C)C(=O)N[C@@H](Cc1c[nH]cn1)C(=O)N1CCC[C@H]1C(=O)N[C@@H](Cc1ccccc1)C(=O)N[C@@H](Cc1c[nH]c2ccccc12)C(=O)N[C@@H](CCCCN)C(=O)N[C@@H](Cc1ccc(O)cc1)C(N)=O [^68Ga-DOTA-AngII peptide, metal not drawn] ({DOTA}-K[βAla]DRVYIHPFWKY-NH2) for AT1 receptor. 0.24
